- targetSystem: HLA-A*24 (peptide-receptive MHC class I monomer of the UV-ligand exchange assay) (human)
- procedureText: UV-ligand exchange with anti-b2m ELISA
peptide exchange yield by entry:

IYQLDTASI [Peptide SEQ ID NO: 182 (…)] : 50 to 75%
VYWDSAGAAHF [Peptide SEQ ID NO: 202 (…)] : > 75%

Request: Retrieve peptide exchange yield measured for AYVVFVSTL [Peptide SEQ ID NO: 207 (…)] and print it.
Response: 20 to 49%

Request: Specify reported peptide exchange yield for the binder shown: VFTRVSSFL [Peptide SEQ ID NO: 162 (…)]
Response: 50 to 75%

Request: Output peptide exchange yield of KYIPYKYVI [Peptide SEQ ID NO: 223 (…)]
Response: 50 to 75%
